assay.method.text: protein stability index of a GFP-peptide fusion (GPS, HEK-293T) (PSI 1-6); higher = more stable;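 also: 24-mer peptide tiles fused after GFP, lentivirally expressed, FACS-sorted into six equal bins by GFP/DsRed ratio, decoded by Illumina sequencing, PSI is the read-weighted mean bin number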
condition.info: treatment: MLN4924 1 uM, 8 h; c terminus: a fixed tail appended
# key: entry, value: protein stability index
The reply should be a number, written without any unit.

> print(dat)
                  biopolymer.sequence  value.reported
1     KPTEPSVPVQPLLPESLARSLLPS [FBF1]            4.43
2   PILKRKLPGSDVSGRLMGSPPVPG [FBXO28]               4
3    PLPKRVAKVPRPPSTLLPTPEEQG [FOXJ1]            4.82
4    EVLENVFRVNCYPGIDIREDLAQK [HESX1]            2.35
5  LKDEEGKLKDLSTVTSLQVPVLKP [PPP2R2C]            5.02

Task: Any idea what protein stability index was measured for DYGVDPSQFSGTLMRTCERLVKEG [PPTC7] ?
Output: 3.79

Task: Can you look up the measured protein stability index of QGPPMVPPYQGGPPRPPMGMRPPV [ZNF207] for me?
Output: 4.18

Source: the supplement of paper PMC10567573
